The reported numbers originate from patent US8349846B2.

- system_name: Human TRPV3 (Homo sapiens, UniProt Q8NET8)
- Construct: expressed in transfected cells; host or cells: CHO cells (selected with G-418)
- Sequence (Q8NET8 whole entry): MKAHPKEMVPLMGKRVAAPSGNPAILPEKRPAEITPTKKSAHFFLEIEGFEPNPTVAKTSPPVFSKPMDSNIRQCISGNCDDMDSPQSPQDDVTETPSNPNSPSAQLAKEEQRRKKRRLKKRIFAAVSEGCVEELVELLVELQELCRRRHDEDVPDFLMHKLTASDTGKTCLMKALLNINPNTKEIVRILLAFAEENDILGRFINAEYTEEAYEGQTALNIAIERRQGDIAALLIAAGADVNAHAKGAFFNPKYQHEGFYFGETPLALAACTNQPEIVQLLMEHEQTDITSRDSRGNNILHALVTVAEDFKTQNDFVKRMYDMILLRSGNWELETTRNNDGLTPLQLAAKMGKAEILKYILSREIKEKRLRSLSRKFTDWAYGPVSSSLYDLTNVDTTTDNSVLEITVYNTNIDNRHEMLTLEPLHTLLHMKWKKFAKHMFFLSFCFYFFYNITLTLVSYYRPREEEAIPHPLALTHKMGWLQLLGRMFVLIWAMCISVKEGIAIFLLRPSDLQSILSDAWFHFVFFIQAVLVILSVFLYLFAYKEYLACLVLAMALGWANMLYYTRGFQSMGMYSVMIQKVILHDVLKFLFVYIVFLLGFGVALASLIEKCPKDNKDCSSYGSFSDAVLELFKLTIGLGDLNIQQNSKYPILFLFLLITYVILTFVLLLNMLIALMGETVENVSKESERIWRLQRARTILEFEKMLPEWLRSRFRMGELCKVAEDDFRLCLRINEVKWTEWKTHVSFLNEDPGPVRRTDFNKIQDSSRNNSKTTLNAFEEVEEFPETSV
- protocol_description: Screening for TRPV3 antagonist using the 45Calcium uptake assay (inhibition of 2-APB induced cellular uptake of radioactive calcium)
- Assay type: cell-based
- recorded_conditions: CHO, 10.0 μM test compound; Human TRPV3 expressing CHO cells; 2-APB 500 μM; read-out: Percentage inhibition at 10.0 μM
inhibition at 10 µM below 80% gives no; inhibition at 10 µM at or above it gives yes.

Record "COc1cccc(/C=C/c2nc3c(C)cccn3c(=O)c2-c2ccc(C(F)(F)F)cc2)c1OC1CCCC1" ; criterion: inhibition at 10 µM no lower than 80%. Met?
no

Record "CCCCOc1c(/C=C/c2nc3ccccn3c(=O)c2-c2ccc(C(F)(F)F)cc2)cccc1OC" ; criterion: inhibition at 10 µM no lower than 80%. Met?
yes

Record "COc1cccc(/C=C/c2nc3ccccn3c(=O)c2-c2ccc([N+](=O)[O-])cc2)c1OC1CCCC1" ; criterion: inhibition at 10 µM no lower than 80%. Met?
no

Record "COc1cccc(/C=C/c2nc3ccccn3c(=O)c2-c2ccc(C(F)(F)F)cc2)c1OC1CCCC1" ; criterion: inhibition at 10 µM no lower than 80%. Met?
yes

Record "COc1cccc(/C=C/c2nc3ccccn3c(=O)c2-c2ccc3ncccc3c2)c1OC1CCCC1" ; criterion: inhibition at 10 µM no lower than 80%. Met?
yes

Record "COc1cccc(/C=C/c2nc3ccccn3c(=O)c2-c2cc(F)cc(F)c2)c1OC1CCCC1" ; criterion: inhibition at 10 µM no lower than 80%. Met?
no

Record "CCCCOc1c(/C=C/c2nc3ccccn3c(=O)c2-c2ccc(C#N)cc2)cccc1OC" ; criterion: inhibition at 10 µM no lower than 80%. Met?
yes

Record "COc1cccc(/C=C/c2nc3ccccn3c(=O)c2-c2ccc3c(c2)OCCO3)c1OC1CCCC1" ; criterion: inhibition at 10 µM no lower than 80%. Met?
yes

Record "COc1cccc(/C=C/c2nc3c(OC)cccn3c(=O)c2-c2ccc(C#N)cc2)c1OC1CCCC1" ; criterion: inhibition at 10 µM no lower than 80%. Met?
yes

Record "COc1cccc(/C=C/c2nc3ccccn3c(=O)c2-c2ccccc2)c1OC1CCCC1" ; criterion: inhibition at 10 µM no lower than 80%. Met?
no

Record "COc1cccc(/C=C/c2nc3ccc(Cl)cn3c(=O)c2-c2ccc(C#N)cc2)c1OCC1CC1" ; criterion: inhibition at 10 µM no lower than 80%. Met?
yes

Record "COc1cccc(/C=C/c2nc3ccccn3c(=O)c2-c2ccc(C#N)cc2)c1OC1CCCC1" ; criterion: inhibition at 10 µM no lower than 80%. Met?
no

Record "COc1cccc(/C=C/c2nc3ccccn3c(=O)c2-c2ccc(C(=O)O)cc2)c1OC1CCCC1" ; criterion: inhibition at 10 µM no lower than 80%. Met?
no

Record "COc1cccc(/C=C/c2nc3ccccn3c(=O)c2-c2ccc3c(c2)OCO3)c1OC1CCCC1" ; criterion: inhibition at 10 µM no lower than 80%. Met?
yes

Record "COc1cccc(/C=C/c2nc3ccccn3c(=O)c2-c2ccc(C#N)cc2)c1OCC1CC1" ; criterion: inhibition at 10 µM no lower than 80%. Met?
yes

Record "COc1cccc(/C=C/c2nc3ccccn3c(=O)c2-c2cccc(O)c2)c1OC1CCCC1" ; criterion: inhibition at 10 µM no lower than 80%. Met?
yes

Record "CCCCOc1c(/C=C/c2nc3ccccn3c(=O)c2-c2ccc(OC(F)(F)F)cc2)cccc1OC" ; criterion: inhibition at 10 µM no lower than 80%. Met?
yes

Record "COc1cccc(/C=C/c2nc3ccccn3c(=O)c2-c2ccc(OC(F)(F)F)cc2)c1OCC1CC1" ; criterion: inhibition at 10 µM no lower than 80%. Met?
yes

Record "COc1cccc(-c2c(/C=C/c3cccc(OC)c3OC3CCCC3)nc3ccccn3c2=O)c1" ; criterion: inhibition at 10 µM no lower than 80%. Met?
no

Record "COc1cccc(/C=C/c2nc3ccccn3c(=O)c2-c2ccc(NC(C)=O)cc2)c1OC1CCCC1" ; criterion: inhibition at 10 µM no lower than 80%. Met?
yes

Record "COc1cccc(/C=C/c2nc3ccccn3c(=O)c2-c2ccncc2)c1OC1CCCC1" ; criterion: inhibition at 10 µM no lower than 80%. Met?
no

Record "CCCCCCOc1c(/C=C/c2nc3ccccn3c(=O)c2-c2ccc(C#N)cc2)cccc1OC" ; criterion: inhibition at 10 µM no lower than 80%. Met?
yes

Record "COc1cccc(/C=C/c2nc3ccccn3c(=O)c2-c2cccc(NC(C)=O)c2)c1OC1CCCC1" ; criterion: inhibition at 10 µM no lower than 80%. Met?
yes

Record "CCCCCCOc1c(/C=C/c2nc3ccccn3c(=O)c2-c2ccc(C(F)(F)F)cc2)cccc1OC" ; criterion: inhibition at 10 µM no lower than 80%. Met?
no

Record "COc1cccc(/C=C/c2nc3ccc(Cl)cn3c(=O)c2-c2ccc(C#N)cc2)c1OC1CCCC1" ; criterion: inhibition at 10 µM no lower than 80%. Met?
yes

Record "CCCCCOc1c(/C=C/c2nc3ccccn3c(=O)c2-c2ccc(C(F)(F)F)cc2)cccc1OC" ; criterion: inhibition at 10 µM no lower than 80%. Met?
yes

Record "CCCOc1c(/C=C/c2nc3ccccn3c(=O)c2-c2ccc(C#N)cc2)cccc1OC" ; criterion: inhibition at 10 µM no lower than 80%. Met?
yes

Record "COc1cccc(/C=C/c2nc3ccccn3c(=O)c2-c2ccc(SC)cc2)c1OC1CCCC1" ; criterion: inhibition at 10 µM no lower than 80%. Met?
no

Record "CCCCCOc1c(/C=C/c2nc3ccccn3c(=O)c2-c2ccc(C#N)cc2)cccc1OC" ; criterion: inhibition at 10 µM no lower than 80%. Met?
yes

Record "COc1cccc(/C=C/c2nc3ccccn3c(=O)c2-c2ccc(F)nc2)c1OC1CCCC1" ; criterion: inhibition at 10 µM no lower than 80%. Met?
yes
